procedure-details: yeast display, Sf9 membrane polyspecificity reagent, FACS + sequencing; frameworks hold sequencing errors
observed-property: polyreactivity (PSR sort gate)

QVQLVESGGGLVQAGGSLRLSCAASGSTFGGYAMGWYRQAPGKERELVAAISRRGVSTYYADSVKGRFTISRDNAKNTVYLQMNSLKPEDTAVYYFNKKYFYSRHGSWGQGSQVTVSS: high polyreactivity
QVQLVESGGGLVQAGGSLRLSCAASGSIILVYAMGWYRQAPGKERELVAGINSSGTSTYADSVKGRFTISRDNAKNTVYLQMNSLKPEDTAVYYCATPGIYYEMDYWGQGTQVTVSS: low polyreactivity
QVQLVESGGGLVQAGGSLRLSCAASGSTFHKYAMGWYRQAPGKEREFVAAISWSGGSTYYADSVKGRFTISRDNAKNTVYLQMNSLKPEDTAVYYCAAKGGVSRARWRSIFWHDYWGQGTQVTVSS: high polyreactivity
QVQLVESGGGLVQAGGSLRLSCAASGSTSDINAMGWYRQAPGKERELVAVITFSGGSTNYADSVKGRFTISRDNAKNTVYLQMHSLKPEDTAVYYCNADTLTTTRRFNPYDYWGQGTQVTVSS: low polyreactivity

I have this sequence here, QVQLVESGGGLVQAGGSLRLSCAASGYIFLRNAMGWYRQAPGKERELVAAIRRTGGSTYYADSVKGRFTISRDNAKHTVYLQMNSLKPEDTAVYYCAKRSYTGYESWGQGTQVTVSS , and I need its recorded polyreactivity (PSR sort gate).
low polyreactivity

###

procedure-details: yeast display, Sf9 membrane polyspecificity reagent, FACS + sequencing; frameworks hold sequencing errors
observed-property: polyreactivity (PSR sort gate)

# example entries with known answers
QVQLVESGGGLVQAGGSLRLSCAASGSTFSKNAMGWYRPAPGKERELVAAIRSRGGSTYYADSVKGRFTISRDNAKNTVYLQMNSLKPEDTAVYYCAAQYFWYVYSYDYWGQGTQVTVSS: high polyreactivity
QVQVLESGGGLFQAGGRLRLSCAASGRTFRSYAMGWYRQAPGKERELVAAIRRGGSTNYADSVKGRFTISRDNAKNTVYLQMNSEKPEDTAVYYCAARGWSYRSVGYMDYWGQGTQVTVSS: high polyreactivity
QVQLVESGGGLVQAGGSLRLSCAASGSTFYIYAMGWSRQAPGKEREFVAAIDFSGSSTYADSVKGRFTISLDNAKNTVYLQMNSLKPEDTAVYYCAAYQIYQYYGPYDYWGQGTQVTVSS: low polyreactivity
QVQLVESRGGLVQAGGSLRLSCAASGRTFHRNAMGWYRQPPGKERELVAAITGDGRTNYADSVKGRFTISRDNAKNTVYLQMNSLKPVDTAVYYCAARFSYRSYDYWGQGTQVTVSS: low polyreactivity
QVQLVESGGGLVQAGGSLRLSCAASGRTFYYYAKGWYRQAPGKERELVARISRCGSTNYADSVKGRFTISRDNAKNTVYLQMISLKPEDSAVYYCAAGWRGGRYRYFAYDYWGQGTQVTVSS: high polyreactivity
QVQLVESGGGLVQSGGSLRLSCAASGSTFLWYAMGWYRPAPGKERELVASISRGGGTDYADSVKGRFTISRDNAKKTVYLQMNSLIPEDTAVYYCAATGVYRYDHWGQGTQVTVSS: low polyreactivity

Item QVQLVESGGGLVQAGGSLRLSCAASGRIFWDNAMGWYRQAPGKERELVAAISDSVVITYYADSVKGRFTISRDNAKNTVYLQMNSLKPEDTAVYYCAADKRGTVYLSSFWMDYWGQGTQVTVSS has what recorded polyreactivity (PSR sort gate)?
low polyreactivity

Try QVQLEESGGGLVQAGGSLRLSCAASGRIFQYYDMGWYRPATGKERELVAGIRTNGSSTYYADSVKGRFTISRDNAKNTVYLQMNSLKPEDSAVYYCAARHYRYLRQYDYWGQGTQVTVSS next.
low polyreactivity

Follow-up item: QVQLVESGVGKVQAGGSLRLSCAASGSTIGSNAMGWYRQAPGKESELVATINWRGGSTYADSVKGRFTLSRDNAKNTVYLQINSLKPEDTAVYYCKKVRGAFYSHLFDYWGQGTEVTVSS
high polyreactivity

###

procedure-details: yeast display, Sf9 membrane polyspecificity reagent, FACS + sequencing; frameworks hold sequencing errors
observed-property: polyreactivity (PSR sort gate)

QVQLVESGGGLVQAGGSLRLSCAASGSIFDYNTMGWYRQAPGKERELVATISWSGDSTYYADSVKGRFTISRDNAKNTVYLQMNSLKPEDTAVYYCAKTAPPERYSAWRYSWGQGTQVTVSS: low polyreactivity
QVQLVESGGGLVQAGGSLRLSCAASGITFVDYAMGWYRQAPGKERELVAAITTGGSTNYADSVKGRFTISRDNAKNTVYLQMNSLKPEDTAVYYCNKRPVILYDYWGQGTQVTVSS: low polyreactivity

###

procedure-details: yeast display, Sf9 membrane polyspecificity reagent, FACS + sequencing; frameworks hold sequencing errors
observed-property: polyreactivity (PSR sort gate)

Solved entries:
QVQLVESGGGLVQAGGSLRLSCAASGSTLLTYTMGWYRQAPGKESELVASITTSGGSTYYADSVKGRFTISRDNAKNTVYLQMNSLKPEDTAVYYWGQGTQVTVSS: low polyreactivity
QVQLVEAGGGLVQAGGSLRLSCAASGNIFLYYAMGWYRQAPGKEREFVADIDSSGASTYYADSVKGRFTISRDNAKNTVYLQMNSLKPEDTAVYYCAAEFHWWYAGYDYGYWGQGTQVTVSS: low polyreactivity
QVQLVESGGGLVQAGGSLRLSCAASGSIFLAYAMGWYRQAPGKEREFVAAISFSDGSTYYADSVKGRFTISRDNAKNTVYLQMNSLKPEETAVYYCNKGASPDDYDYWGQGTQVTVSS: low polyreactivity
QVQLVESGGGLVQAGGSLRLSCAASGIIFVYYAMGWYRQAPGKERELVAAINWSGGSTYYADSVKGRFTISRDNAKNTVYLQMNSLKPEDTAVYYCAASSYITSDQRFYYWGQGTQVTVSS: high polyreactivity

Let us move to another entry and its polyreactivity (PSR sort gate).
So what does the record say about polyreactivity (PSR sort gate) for QVQLVESGGGLVQAGGSLRLSCAASGRIFWVNVMGWYRQGPGKERELVAAITRGASTYADSVKGRFTISRDNAKNTVYLQLNSLKPEDTAVYYCAADSKRRSIRYDYWGQGTQVTVSS ?
high polyreactivity

###

procedure-details: yeast display, Sf9 membrane polyspecificity reagent, FACS + sequencing; frameworks hold sequencing errors
observed-property: polyreactivity (PSR sort gate)

Worked examples follow.
QVQLVESGGGLVQAGGSLRLSCSASGFTFDSYAMGWYRQAPGKERELVAAITSDGSTYYADSVKGRFTISRDNAKNTVYLQMNSLKPEDTAVYYCAADGRYFRAVFRLYDYWGQGTQVTVSS: low polyreactivity
QVQLVESGGGLVQAGGSLRLSCAASGSILALYTMGVYRQAPGKERELVASISSGGRTNYADSVKGRFTISRDNAKNTVYLQMNSLKPEDTAVYYCARSRLGRAYGRYDYWGQGTQVTVSS: low polyreactivity
QVQLVESGGGLVQAGGSLRLSCAASGSTFVWYAMGWYRQAPGKERELVAVINWSAGRTYYADSVKGRFTFSRDTAKNTVYLQMNSLKPEDTAVYYCATRTYYRSRTVGWGKMDYWGQGTQVTVSS: high polyreactivity
QVQLVESGGGLVQAGGSLRLSCAASGRIFVDYVMGWYRQAPGKERELVARITWIGGNTYYADSVKGRFTISRDNAKNTVYLQMKSLKPEETAVYYCNAGLTLLSRRHEGWYGYDYWGQGTQVTVSS: low polyreactivity
QVQLVESWGGLVQAGGSLRLSCAASGSTFASYVMGWSRQAPGKERELVAAISRSGGSTYYADSVKGRFTISRDNAKYTVYLQMNSLKPEDTAVYYCNAPYLIYKKGRYDYWGQGTQVTVSS: high polyreactivity

Lab note: next sequence to report on.
What value of measured polyreactivity (PSR sort gate) is listed for QVQLVESGGGLVQAGGSLRLSCAASGSIFTLYAMGSYRQAPGKERELVAAITWSGGSTYYADSVKGRFTISRDNAKNTVYLQMNSLKPEDTAVYYCAKDYLAGGPWEGHVEREYDYWGQGTQVTVSS ?
low polyreactivity

###

procedure-details: yeast display, Sf9 membrane polyspecificity reagent, FACS + sequencing; frameworks hold sequencing errors
observed-property: polyreactivity (PSR sort gate)

As a guide, the following entries are already answered.
QVQLVESGGGLVQAGGSLRLSCAASGLIFRPYAMGWYRQAPGKERELFAGISFRGDSTYYADSVKGRFTISRDNAKNTVYLQMNCLKPEDTAVYYCDADVYIYWPPDKLLGYDYWGQGSQVTVSS: low polyreactivity
QVQLVESCGGLVQAGVSLRLSCAASVFKYAMGRYRQAPGKKRELVAAISSGGITSYADSVKGRFTISRDNAKNTVYLQMNSLKPEDTAVYYCNARLRHSQYAYYYWGQGTQVTLSS: high polyreactivity
QVQLVESGGGLVQSGGSLRLSCAASGRIFGKYAMGWYRQAPGKERELVARISFSGGTTYYADSVKGRFTISRDNAKNTVYLQMYSLKPEDTAVYYCSARSVWSQRWAYDSWGQGTQVTVSS: high polyreactivity
QVQLEESGGCLVQAGGSLRLICAASGSTFDANAMGWYRQAPGKERELVATISDGGSTNYADSVKGRFTISRDNAKNTVYLQMNSLKPEDTSVYYCAALWYYGGKSACPGGGYWGQGTQVTVSS: low polyreactivity
QVQLVESGGGLVQAGGSLRLSCAASGSSVYRYAMGWYRQAPGKERELVAAITWSGGSTYYADSVKGRFTISRDNAKNTVYLQMNSLKPEDSAVYYCAVEPFSNEFYYWGQGTQVTVSS: low polyreactivity

Request the reported polyreactivity (PSR sort gate) associated with QVQLVESGGGLVQAGGSLRLSCAASGSTFKYYAMVWYRQAPGKERELVAAISRSGGRTYYADSVKGRFTISRDNAKNTVYLQMNSLKPEDTAVSLCNAVVARVNVRGTPAFDYWGQGTQVTVSS
high polyreactivity

And then QVQLVESGGGLVQAGGSLRLSCAASGRTFTIYAMGWYRQAPGKERELVAAISWSDGSTYYADSVKGRFTISRDNAKNTVYLQMNSLKPEDTAVYSCAREVYGDASAPDMDYWGQGTQVTVSS , what is it?
low polyreactivity

Moving on to QDQLVESGGGLVQAGGSLRLSCAASGSIFTRYTMGWYRQAPGKERELVATISSRGDGTYYADSVKGRFTISRDNAKNTVYLQMNSLKPEDTAVYYCAARYRRVHSGYGYWGQGTQVTVSS
high polyreactivity

And QVQLEESGGGLVQAGGSLRLSCAAYGSTFSYNAMGGSRPAPGTQRELVAAITSSGSSTYYADSVKGRFTISRYNAKNTVYFQMNSLKPEDTAVYYCNAEVLFVAGQVQRNSGDYWGQGTQVTVSS ?
low polyreactivity

What do you get for QVQLVESGGGLVQAGGSLRLSCAASGSIFDWYVMGWYRQARGKERELVAAITSTGSTYYADSVKGRFTISRDNAKNTVYLQMNSLKPEDTAVYYCAAQRYSTFTYDYWGQGTQVTVSS ?
low polyreactivity

Similarly, QVQLVESGGGLVQAGGSLRLSCAASGRSFKKYAMGWYRQAPGKERELVAAITASGGSTYYADSVKGRYTISRDNAKNTVYLQMNSLTPEDTAVYYCAAYAYGVWHSQDGGNYWGQGTQVTVSS ?
low polyreactivity

How about this sequence: QVQLVESGGGLVQAGGSLRLSCAASGRTFYRNDMGWYRQAPGKERELVAAITSSGGTTYADSVKGRFTISRDNAKNTVYLQMNSLKPEDTAVYYCAAVYAYPNIYDYWGQGTQVNVSS
low polyreactivity

Also need QVQLVESGGGLVQAGGSLRLSCAASGFIFGEYAMGWYRQAPGKERELVAAITWSGGSTSYADSVKGRFTSSRDNAKNTVYLQMNSLKPEDTAVYYCSARWHVYWGGFYYWGQVTQVTVSS , thanks.
high polyreactivity
